- System: P-gp (Mdr1a/1b) in mouse intestinal segments
- Protocol summary: Ussing chamber intestinal permeability, ileal segments Mdr1a/1b (+/+) vs (−/−)
- Recorded conditions: intestinal Papp KO:WT
Readout: Ratio Permeability (−/−): (+/+)
Form rule: numeric answer, no unit written next to it.

Request: Find the recorded Ratio Permeability (−/−): (+/+) belonging to COc1cc2c(c(OC)c1OC)-c1ccc(OC)c(=O)cc1[C@@H](NC(C)=O)CC2 and report it.
Result: 2.16

Request: Find the recorded Ratio Permeability (−/−): (+/+) belonging to COC(=O)c1ccccc1-c1c2ccc(=N)cc-2oc2cc(N)ccc12.Cl and report it.
Result: 2.49

Request: Find the recorded Ratio Permeability (−/−): (+/+) belonging to OCc1cc(C(O)CNCCCCCCOCCCCc2ccccc2)ccc1O (stereo not drawn) and report it.
Result: 1.16

Request: Find the recorded Ratio Permeability (−/−): (+/+) belonging to CN1CCC[C@@H]1Cc1c[nH]c2ccc(CCS(=O)(=O)c3ccccc3)cc12 and report it.
Result: 2.26

Request: Find the recorded Ratio Permeability (−/−): (+/+) belonging to COc1ccc(C[C@H](N)C(=O)N[C@H]2[C@@H](O)[C@H](n3cnc4c(N(C)C)ncnc43)O[C@@H]2CO)cc1 and report it.
Result: 2.56

Request: Find the recorded Ratio Permeability (−/−): (+/+) belonging to CCc1cc2c(cc1CC)CC(NC[C@H](O)c1ccc(O)c3[nH]c(=O)ccc13)C2 and report it.
Result: 1.92
